Every entry's value here was drawn from ChEMBL document CHEMBL1201862.

Tested on: HT-29
Assay: NCI tumour cell line growth inhibition, 48 h
Active and inactive are the calls of the source. Rule as the data show it: active = GI50 up to about 1.1 µM and inactive = higher.
Outcome codes: active, inactive

>  <MOLECULE>
CCOC(=O)C1CC(C(=O)c2ccccc2)N2c3ccccc3-c3ccccc3C12 (stereo not drawn)

>  <DISCRETE LABEL>
inactive

$$$$
>  <MOLECULE>
Nc1n[n+](-c2ccccc2)no1

>  <DISCRETE LABEL>
inactive

$$$$
>  <MOLECULE>
Cc1nc(N)c(N2CCN(C(=O)O)CC2)c(O)n1

>  <DISCRETE LABEL>
inactive

$$$$
>  <MOLECULE>
O=S1(=O)OCCOS(=O)(=O)C1(F)Br

>  <DISCRETE LABEL>
inactive

$$$$
>  <MOLECULE>
CCOC(=O)c1[nH]c(CN(C)Cc2[nH]c(C(=O)OCC)c(C)c2C(=O)OCc2ccccc2)c(C(=O)OCc2ccccc2)c1C

>  <DISCRETE LABEL>
inactive

$$$$
>  <MOLECULE>
CCCN(CCC)C(=O)Cc1c2n(c3ccccc13)Cc1ccccc1-2

>  <DISCRETE LABEL>
inactive

$$$$
>  <MOLECULE>
CC[C@@]1(O)C(=O)OCc2c1cc1n(c2=O)Cc2c-1nc1ccccc1c2Cl

>  <DISCRETE LABEL>
active

$$$$
>  <MOLECULE>
C=C1C(OC(C)=O)CC(OC(C)=O)C2(C)C(OC(C)=O)C(OC(C)=O)C3=C(C)C(OC(=O)/C=C/c4ccccc4)CC(C(OC(C)=O)C12)C3(C)C (stereo not drawn)

>  <DISCRETE LABEL>
inactive

$$$$

* * *

Tested on: MCF7
Experiment: NCI tumour cell line growth inhibition, 48 h
Active and inactive are the calls of the source. No stated cut-off is given here; in the data, active = GI50 up to about 1.1 µM and inactive = higher. Residues, ends and D or L forms follow the SMILES beside them. *: point of attachment. Boc = CC(C)(C)OC(=O)*
GI50 values for the compounds below.
READOUT TYPE: GI50

>  <COMPOUND>
C=CCOC1=C(OC(C)=O)C(=O)OC1C1COC(C)(C)O1 (stereo not drawn)

>  <TARGET OF ASSAY>
MCF7

>  <READOUT TYPE>
GI50

>  <RESULT>
28.2 µM (inactive)

$$$$
>  <COMPOUND>
COc1cc2cc(C(=O)N3CC(CCl)c4c3cc(NC(=O)OCc3ccc([N+](=O)[O-])cc3)c3ccccc43)[nH]c2c(OC)c1OC (stereo not drawn)

>  <TARGET OF ASSAY>
MCF7

>  <READOUT TYPE>
GI50

>  <RESULT>
36.1 µM (inactive)

$$$$
>  <COMPOUND>
Cc1cccc(/N=N/c2ccc(O)c(CN(C)C)c2)c1

>  <TARGET OF ASSAY>
MCF7

>  <READOUT TYPE>
GI50

>  <RESULT>
39.1 µM (inactive)

$$$$
>  <COMPOUND>
COC(=O)C(Cc1c[nH]c2ccccc12)NC(=O)C(Cc1c[nH]c2ccccc12)NC(=O)C(Cc1c[nH]c2ccccc12)NC(=O)C(Cc1c[nH]c2ccccc12)NC(=O)OC(C)(C)C (stereo not drawn) (Boc-WWWW-OMe; configuration not given here)

>  <TARGET OF ASSAY>
MCF7

>  <READOUT TYPE>
GI50

>  <RESULT>
< 0.01 µM (active)

$$$$
>  <COMPOUND>
CCN(CC)CCSc1c2cc(OC)ccc2nc2ccc(OC)cc12

>  <TARGET OF ASSAY>
MCF7

>  <READOUT TYPE>
GI50

>  <RESULT>
2.51 µM (inactive)

$$$$
>  <COMPOUND>
C=C1C(=O)O[C@H]2C1[C@H](OC(=O)/C(C)=C\COC(C)=O)C[C@]1(CO1)[C@@H]1[C@H](O)[C@H]3O[C@@]3(C)[C@@H]12 (stereo partly drawn)

>  <TARGET OF ASSAY>
MCF7

>  <READOUT TYPE>
GI50

>  <RESULT>
11.5 µM (inactive)

$$$$
>  <COMPOUND>
COc1cc2c(cc1OC)C(N)CC2=O (stereo not drawn)

>  <TARGET OF ASSAY>
MCF7

>  <READOUT TYPE>
GI50

>  <RESULT>
> 100 µM (inactive)

$$$$
>  <COMPOUND>
CCC1CCC2c3c([nH]c4ccc(C)cc34)C3C(=O)N(N(C)C)C(=O)C3C2C1 (stereo not drawn)

>  <TARGET OF ASSAY>
MCF7

>  <READOUT TYPE>
GI50

>  <RESULT>
3.64 µM (inactive)

$$$$
>  <COMPOUND>
N/C(=N\N=C\c1cc2ccccc2s1)c1cnccn1

>  <TARGET OF ASSAY>
MCF7

>  <READOUT TYPE>
GI50

>  <RESULT>
5.24 µM (inactive)

$$$$
>  <COMPOUND>
CC1(C)C2CCC(N)(C2)C1N (stereo not drawn)

>  <TARGET OF ASSAY>
MCF7

>  <READOUT TYPE>
GI50

>  <RESULT>
> 100 µM (inactive)

$$$$
>  <COMPOUND>
CN(C(=O)c1cccs1)C(=S)N1CCN(c2ccccc2)CC1

>  <TARGET OF ASSAY>
MCF7

>  <READOUT TYPE>
GI50

>  <RESULT>
> 100 µM (inactive)

$$$$
>  <COMPOUND>
COc1ccc(/C=N/NC(=O)c2ccccc2Nc2ccccc2C(=O)N/N=C/c2ccc(OC)cc2)cc1

>  <TARGET OF ASSAY>
MCF7

>  <READOUT TYPE>
GI50

>  <RESULT>
> 100 µM (inactive)

$$$$
>  <COMPOUND>
CCCC(=O)Oc1cc(OC(=O)CCC)c2c(C)cc(=O)oc2c1

>  <TARGET OF ASSAY>
MCF7

>  <READOUT TYPE>
GI50

>  <RESULT>
54.5 µM (inactive)

$$$$
>  <COMPOUND>
COc1ccc(/C=C/C(=O)N[C@@H]2C(=O)N3[C@@H]2SC(C)(C)[C@@H]3C(=O)O)cc1

>  <TARGET OF ASSAY>
MCF7

>  <READOUT TYPE>
GI50

>  <RESULT>
> 100 µM (inactive)

$$$$
>  <COMPOUND>
CC[C@@]1(O)C[C@H](OC2CC(N(C)C)C(O)C(C)O2)c2c(O)c3c(c(O)c2[C@H]1OC1CC(N(C)C)C(O)C(C)O1)C(=O)c1cccc(O)c1C3=O (stereo partly drawn)

>  <TARGET OF ASSAY>
MCF7

>  <READOUT TYPE>
GI50

>  <RESULT>
0.0321 µM (active)

$$$$
>  <COMPOUND>
COc1c(Cl)nc2ccccc2c1N=[N+]=[N-]

>  <TARGET OF ASSAY>
MCF7

>  <READOUT TYPE>
GI50

>  <RESULT>
> 100 µM (inactive)

$$$$
>  <COMPOUND>
CCOC(=O)n1c2ccccc2c2c(O)c(OC)c3c(c21)C(=O)NC3=O

>  <TARGET OF ASSAY>
MCF7

>  <READOUT TYPE>
GI50

>  <RESULT>
54.3 µM (inactive)

$$$$
>  <COMPOUND>
O=C(Cn1c(=O)oc2ccc(C(=O)c3ccccc3Cl)cc21)c1ccc([N+](=O)[O-])cc1

>  <TARGET OF ASSAY>
MCF7

>  <READOUT TYPE>
GI50

>  <RESULT>
22.9 µM (inactive)

$$$$
